- MEASUREMENT_TARGET: bovine thioredoxin reductase (Bos taurus)
- Sequence (O62768 whole entry): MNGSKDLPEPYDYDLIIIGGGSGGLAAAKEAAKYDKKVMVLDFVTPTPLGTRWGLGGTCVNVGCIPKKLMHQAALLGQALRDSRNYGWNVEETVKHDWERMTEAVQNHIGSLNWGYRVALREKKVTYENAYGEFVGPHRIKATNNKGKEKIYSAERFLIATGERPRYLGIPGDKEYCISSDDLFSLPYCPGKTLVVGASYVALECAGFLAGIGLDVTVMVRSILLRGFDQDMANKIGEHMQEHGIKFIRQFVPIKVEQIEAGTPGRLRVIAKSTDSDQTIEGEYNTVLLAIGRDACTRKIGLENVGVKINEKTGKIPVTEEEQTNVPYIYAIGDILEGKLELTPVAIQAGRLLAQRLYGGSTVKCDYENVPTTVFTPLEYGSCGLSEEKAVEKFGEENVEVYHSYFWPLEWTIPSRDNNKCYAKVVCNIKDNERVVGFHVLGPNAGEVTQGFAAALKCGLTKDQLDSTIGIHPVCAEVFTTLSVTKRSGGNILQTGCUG
- ASSAY_PROCEDURE: Bovine thioredoxin reductase DTNB assay
- Assay type: biochemical
- CONDITION_NOTES: read-out: IC50 bTR; DTNB assay, 100 μM NADPH
pIC50: −log10 of the molar value.
PARAMETER: pIC50

smiles_data=COc1ccc(C(=O)N2CCC3(CC2)C(=O)N(CC(=O)NCc2cccc(C(F)(F)F)c2)CN3c2ccccc2)c(OC)c1 parameter=pIC50 value_reported="< 4.00"

---

- MEASUREMENT_TARGET: porcine PDHC (Sus scrofa)
- Sequence (P09623 36-509): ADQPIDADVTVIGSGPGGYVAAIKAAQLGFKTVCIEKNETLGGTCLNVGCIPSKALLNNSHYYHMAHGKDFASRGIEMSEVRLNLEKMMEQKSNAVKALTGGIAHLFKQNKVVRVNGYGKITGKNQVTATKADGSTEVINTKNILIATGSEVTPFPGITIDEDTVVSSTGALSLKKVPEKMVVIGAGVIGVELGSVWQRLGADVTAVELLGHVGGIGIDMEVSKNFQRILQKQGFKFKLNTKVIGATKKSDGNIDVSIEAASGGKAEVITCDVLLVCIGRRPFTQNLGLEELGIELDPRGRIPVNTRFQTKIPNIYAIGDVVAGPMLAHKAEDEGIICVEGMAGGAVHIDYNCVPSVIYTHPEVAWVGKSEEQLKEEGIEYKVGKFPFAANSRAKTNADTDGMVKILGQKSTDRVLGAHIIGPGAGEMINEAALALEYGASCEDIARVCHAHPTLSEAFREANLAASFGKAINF
- ASSAY_PROCEDURE: Porcine PDHC assay
- Type: biochemical
- CONDITION_NOTES: read-out: IC50 pPDHC; PDHC assay
pIC50: −log10 of the molar value.
PARAMETER: pIC50

compound="COc1ccc(C(=O)N2CCC3(CC2)C(=O)N(CC(=O)NCc2cccc(C(F)(F)F)c2)CN3c2ccccc2)c(OC)c1 [compound 4]" value_reported=4.00

---

- MEASUREMENT_TARGET: UniProt P09622
- Sequence (P09622 36-509): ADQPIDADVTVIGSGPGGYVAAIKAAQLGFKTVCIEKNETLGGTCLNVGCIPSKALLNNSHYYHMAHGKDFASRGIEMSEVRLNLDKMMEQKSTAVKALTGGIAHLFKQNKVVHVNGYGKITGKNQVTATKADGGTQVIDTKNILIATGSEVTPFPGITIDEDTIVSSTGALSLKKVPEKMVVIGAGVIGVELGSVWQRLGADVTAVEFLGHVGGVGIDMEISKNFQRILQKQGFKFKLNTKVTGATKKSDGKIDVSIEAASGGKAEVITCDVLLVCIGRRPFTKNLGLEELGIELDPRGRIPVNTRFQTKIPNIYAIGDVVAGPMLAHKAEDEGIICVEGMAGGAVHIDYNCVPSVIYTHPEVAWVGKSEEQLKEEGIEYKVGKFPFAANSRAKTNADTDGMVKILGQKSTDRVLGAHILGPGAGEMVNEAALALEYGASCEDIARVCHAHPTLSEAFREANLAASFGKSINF
- ASSAY_PROCEDURE: Human Lpd DTNB assay
- Format: biochemical
- CONDITION_NOTES: read-out: IC50 hLpd; DTNB assay
PARAMETER: IC50

compound="COc1ccc(C(=O)N2CCC3(CC2)C(=O)N(CC(=O)NCc2cccc(C(F)(F)F)c2)CN3c2ccccc2)c(OC)c1 [compound 4]" measurement_target="UniProt P09622" value_reported="> 100 µM"

---

- MEASUREMENT_TARGET: bovine Lpd (Bos taurus)
- ASSAY_PROCEDURE: Bovine Lpd DTNB assay
- Assay type: biochemical
- CONDITION_NOTES: read-out: IC50 bLpd; DTNB assay
pIC50: −log10 of the molar value.
PARAMETER: pIC50

molecule="COc1ccc(C(=O)N2CCC3(CC2)C(=O)N(CC(=O)NCc2cccc(C(F)(F)F)c2)CN3c2ccccc2)c(OC)c1 [compound 4]" value_reported="< 4.00"

---

- MEASUREMENT_TARGET: bovine Lpd (Bos taurus, UniProt F1N206)
- Sequence (F1N206 36-509): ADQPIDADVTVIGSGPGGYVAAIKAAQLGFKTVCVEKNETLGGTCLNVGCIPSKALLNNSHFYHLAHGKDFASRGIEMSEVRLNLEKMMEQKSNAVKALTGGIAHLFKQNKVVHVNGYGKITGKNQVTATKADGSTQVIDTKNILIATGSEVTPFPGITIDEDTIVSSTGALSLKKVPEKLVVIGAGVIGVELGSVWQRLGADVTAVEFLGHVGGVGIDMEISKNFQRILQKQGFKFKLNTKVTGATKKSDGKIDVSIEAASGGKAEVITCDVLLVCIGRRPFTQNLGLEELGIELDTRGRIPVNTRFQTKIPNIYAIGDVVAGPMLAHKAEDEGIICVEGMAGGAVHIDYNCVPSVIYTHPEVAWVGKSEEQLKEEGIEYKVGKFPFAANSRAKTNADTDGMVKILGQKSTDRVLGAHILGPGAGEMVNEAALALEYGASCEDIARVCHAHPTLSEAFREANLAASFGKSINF
- ASSAY_PROCEDURE: Bovine Lpd DTNB assay
- Format: biochemical
pIC50: −log10 of the molar value.
PARAMETER: pIC50

smiles_data=COc1ccc(C(=O)N2CCC3(CC2)C(=O)N(CC(=O)NCCc2ccc(Cl)cc2Cl)CN3c2ccccc2)c(OC)c1 parameter=pIC50 value_reported=4.00
